Taken from ChEMBL document CHEMBL4400543.

Test Method Notes: Drug uptake in NSG mouse serum at 20 mg/kg, ip administered as single dose and measured at 8 hrs by HPLC-MS/MS analysis
Format: ADME, organism-based
Study Conditions: read-out: Drug uptake
Outcome Measure: concentration at 8 h

Task: Recorded concentration at 8 h for `CC(C)(C)c1ccc(CN(C(=O)CN(Cc2c(F)c(F)c(F)c(F)c2F)S(=O)(=O)c2ccc(F)cc2)c2ccc(C(=O)NO)cc2)cc1` , please?
Output: 6.39 µg/mL

* * *

Measured Target: Histone deacetylase 11 (Homo sapiens, UniProt Q96DB2)
Sequence (Q96DB2 whole entry): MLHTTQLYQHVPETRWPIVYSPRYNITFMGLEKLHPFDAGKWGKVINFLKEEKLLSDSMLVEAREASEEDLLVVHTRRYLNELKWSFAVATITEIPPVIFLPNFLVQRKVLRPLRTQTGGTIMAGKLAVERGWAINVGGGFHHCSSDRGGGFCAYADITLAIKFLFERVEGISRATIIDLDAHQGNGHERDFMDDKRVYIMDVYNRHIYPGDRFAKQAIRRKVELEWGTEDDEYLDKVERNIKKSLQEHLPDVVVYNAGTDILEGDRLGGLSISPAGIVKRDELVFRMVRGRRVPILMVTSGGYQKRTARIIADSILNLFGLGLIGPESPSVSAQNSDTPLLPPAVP
Test Method Notes: Inhibition of recombinant human HDAC11 expressed in SF9 baculoviral system using FAM-labeled acetylated peptide as substrate by EMSA
Outcome Measure: IC50 (nM)
Answers are plain numbers, in nM.

Answered cases to consult:
Mol: CC(C)(C)c1ccc(CN(C(=O)CN(Cc2c(F)c(F)c(F)c(F)c2F)S(=O)(=O)c2ccc(F)cc2)c2ccc(C(=O)NO)cc2)cc1
Unit Tag: nM
IC50: 636

Mol: O=C(NO)c1ccc(N(Cc2ccc(C(F)(F)F)cc2)C(=O)CN(Cc2ccccc2C(F)(F)F)S(=O)(=O)c2ccc(F)cc2F)cc1
Unit Tag: nM
IC50: 346

Mol: O=C(NO)c1ccc(N(Cc2ccc(C(F)(F)F)cc2)C(=O)CN(Cc2c(F)c(F)c(F)c(F)c2F)S(=O)(=O)c2ccc(F)cc2)cc1
Unit Tag: nM
IC50: 191

Hello, I would appreciate it if you could give IC50 for each entry below.
1. CC(C)(C)c1ccc(CN(C(=O)CN(Cc2ccccc2C(F)(F)F)S(=O)(=O)c2ccc(F)cc2F)c2ccc(C(=O)NO)cc2)cc1
2. O=C(NO)c1ccc(N(Cc2ccc(C(F)(F)F)cc2)C(=O)CN(Cc2ccccc2C(F)(F)F)S(=O)(=O)c2ccc(F)c(F)c2)cc1

Output:
288
396

Hello, I would appreciate it if you could give IC50 for each entry below.
1. CC(C)(C)c1ccc(CN(C(=O)CN(Cc2ccccc2C(F)(F)F)S(=O)(=O)c2ccc(F)cc2)c2ccc(C(=O)NO)cc2)cc1
2. CC(C)(C)c1ccc(CN(C(=O)CN(Cc2ccccc2C(F)(F)F)S(=O)(=O)c2ccc(F)c(F)c2)c2ccc(C(=O)NO)cc2)cc1
3. O=C(NO)c1ccc(N(Cc2ccc(C(F)(F)F)cc2)C(=O)CN(Cc2ccccc2C(F)(F)F)S(=O)(=O)c2ccc(F)cc2)cc1

Output:
1. 253
2. 254
3. 304
